- Target System: F protein of RSV (Long strain) (RSV (Long strain), UniProt P12568 26-574)
- Sequence (P12568 26-574): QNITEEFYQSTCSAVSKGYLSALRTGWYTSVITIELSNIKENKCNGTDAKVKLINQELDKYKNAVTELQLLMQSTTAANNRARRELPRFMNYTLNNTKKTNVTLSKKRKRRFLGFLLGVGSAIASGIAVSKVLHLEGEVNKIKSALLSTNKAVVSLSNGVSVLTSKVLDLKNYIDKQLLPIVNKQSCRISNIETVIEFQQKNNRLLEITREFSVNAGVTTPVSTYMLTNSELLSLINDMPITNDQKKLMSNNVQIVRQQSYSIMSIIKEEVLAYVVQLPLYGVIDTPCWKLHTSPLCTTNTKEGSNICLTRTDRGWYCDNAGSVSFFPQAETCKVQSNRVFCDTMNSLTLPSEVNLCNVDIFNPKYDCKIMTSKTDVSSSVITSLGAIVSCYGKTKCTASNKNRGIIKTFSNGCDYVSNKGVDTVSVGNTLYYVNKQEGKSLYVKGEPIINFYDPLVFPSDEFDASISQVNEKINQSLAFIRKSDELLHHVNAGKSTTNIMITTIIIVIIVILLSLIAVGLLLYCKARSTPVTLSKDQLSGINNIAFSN
- Protocol Notes: cell-based or functional assay
Please provide measured IC50 for the entries that follow.
Lab book: enter the figure in nM, no units written.

IN: IC50 lookup needed for P12f2 Fab (Fab, V domains shown) VH: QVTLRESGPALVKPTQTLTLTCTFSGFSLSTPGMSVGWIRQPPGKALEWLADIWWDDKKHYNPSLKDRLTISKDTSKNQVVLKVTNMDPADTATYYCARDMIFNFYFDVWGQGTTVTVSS VL: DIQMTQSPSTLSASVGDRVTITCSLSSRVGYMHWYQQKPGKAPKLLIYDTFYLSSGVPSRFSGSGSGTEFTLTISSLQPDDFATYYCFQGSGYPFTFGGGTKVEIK , thanks.
OUT: 0.65

IN: Any idea what its IC50 is? The binder is A13c4 Fab (Fab, V domains shown) VH: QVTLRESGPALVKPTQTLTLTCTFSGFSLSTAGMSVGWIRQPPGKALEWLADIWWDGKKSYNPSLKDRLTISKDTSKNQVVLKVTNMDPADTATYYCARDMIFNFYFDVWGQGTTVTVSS VL: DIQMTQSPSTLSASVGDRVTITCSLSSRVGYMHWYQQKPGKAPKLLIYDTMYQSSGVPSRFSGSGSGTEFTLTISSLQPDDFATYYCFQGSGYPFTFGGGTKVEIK
OUT: 0.52

IN: Param item = A1e9 Fab (Fab, V domains shown, also called Ale9) VH: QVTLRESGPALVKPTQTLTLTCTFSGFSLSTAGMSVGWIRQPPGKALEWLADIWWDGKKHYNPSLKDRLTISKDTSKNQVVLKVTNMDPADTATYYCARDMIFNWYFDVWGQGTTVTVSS VL: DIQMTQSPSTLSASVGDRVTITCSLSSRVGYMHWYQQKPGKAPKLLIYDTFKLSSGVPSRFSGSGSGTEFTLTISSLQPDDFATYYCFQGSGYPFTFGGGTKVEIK ; retrieve measured IC50.
OUT: 2.5
